Would you mind telling me the reported TGI of each entry?
Tested on: SK-MEL-2 melanoma
Experiment: NCI tumour cell line growth inhibition, 48 h

[Q] For the molecule COc1ccc(N=Nc2c(N)nn3c(SC)c(C#N)c(N)nc23)cc1 , what TGI is on record?
[A] 7.12 µM

[Q] Next molecule up: COc1ccc(/C(C)=C(\c2ccc(Cl)cc2)c2ccc(OCCN3CCCCCC3)cc2)cc1F
[A] 16.3 µM

[Q] Next molecule up: CCN(CC)CCNc1ccc([N+](=O)[O-])c2sc3cc(Cl)ccc3c(=O)c12
[A] > 100 µM

[Q] Next molecule up: O=c1c2cc(I)ccc2nc(-c2cccs2)n1O
[A] > 100 µM

[Q] Next molecule up: N#CC(NC(=O)CCl)=C(Cl)Cl
[A] 5.24 µM

[Q] Next molecule up: CC(C)=CCCC1(C)C2COC(=O)C21 (configuration not stated)
[A] > 100 µM

[Q] Next molecule up: CCC(=C/[C@H](C)C/C=C/C(C)=C/[C@@H](C)C(=O)[C@@H](C)[C@H](O)[C@@H](C)CC)/C=C/[C@H]1CC=CC(=O)O1
[A] < 0.0012 µM

[Q] Next molecule up: CN(C)c1ccc(C2CC(C)(O)Oc3cc4c(cc32)OCO4)cc1 (configuration not stated)
[A] 63.8 µM

[Q] Next molecule up: CC[C@@]12CCC(=S)N(CCSc3ccccc3)[C@@H]1c1c(n(S(=O)(=O)c3ccc(OC)cc3)c3ccccc13)CC2
[A] > 100 µM

[Q] Next molecule up: Nc1ncnc2c1nc(Cl)n2C1OC(CO)C(O)C1O (configuration not stated)
[A] > 100 µM

[Q] Next molecule up: COC(=O)c1ccccc1C1CN=NC12Cc1c(C)ccc(C)c1C2=O (configuration not stated)
[A] > 100 µM

[Q] Next molecule up: CC(C)[C@@H]1NC(=O)[C@@H]2N=C(O[C@H]2C)[C@H](C(C)C)NC(=O)C2N=C1O[C@H]2C
[A] > 100 µM

[Q] Next molecule up: Nc1ccc(C(=O)/C=C/c2ccccc2O)cc1
[A] > 100 µM

[Q] Next molecule up: COc1ccc(/C=N/NC(=S)Nc2cc(C)ccc2OC)cc1
[A] 43.8 µM

[Q] Next molecule up: Cc1ccccc1Nc1nc2ccccc2nc1NS(=O)(=O)c1ccccc1
[A] > 100 µM

[Q] Next molecule up: NNC(=O)N/N=C1\CN(c2ccc(Cl)cc2Cl)C(=O)C(=O)C1c1nc2ccccc2o1 (configuration not stated)
[A] > 100 µM

[Q] Next molecule up: c1cc2c(cc1[C@@H]1OC[C@@H]3[C@H]1CO[C@H]3c1ccc3c(c1)OCO3)OCO2
[A] > 100 µM

[Q] Next molecule up: CC(NNC(=O)c1ccncc1)c1ccc(Cl)cc1Cl (configuration not stated)
[A] > 100 µM

[Q] Next molecule up: O=C(O)Cn1ccc(=O)c2cc([N+](=O)[O-])ccc21
[A] > 100 µM

[Q] Next molecule up: c1ccc(-c2c(-c3[nH]c4ccccc4c3-c3ccccc3)[nH]c3ccccc23)cc1
[A] 22.1 µM

[Q] Next molecule up: COC(=O)[C@@H]1COC(=O)N1
[A] > 100 µM

[Q] Next molecule up: Cc1cc(C)n2c(nc3ccccc32)c1C#N
[A] > 100 µM

----------
System: RXF 393 renal
Assay: NCI tumour cell line growth inhibition, 48 h
Would you mind telling me the reported TGI of each entry?
// return numeric value only (unit: µM, not printed)

[Q] For the compound O=C1C=C/C(=C/[C@H]2SSC=C[C@]23C=CC(=O)C3)C1 , what TGI is on record?
[A] 29.9

[Q] Next compound up: C#CC#CC#CC#CC#CC#CC#CC#CC[C@@H]1OC[C@@H](COC(=O)O[C@@H](C(=O)O[C@H]2C[C@@]3(O)[C@@H](OC(=O)c4ccccc4)[C@@H]4[C@]5(OC(C)=O)CO[C@@H]5C[C@H](O)[C@@]4(C)C(=O)[C@H](OC(C)=O)C(=C2C)C3(C)C)[C@@H](NC(=O)c2ccccc2)c2ccccc2)O1
[A] 2.39

[Q] Next compound up: COc1cccc(C2C(C#N)=C(N)Oc3cc4c(cc32)OCO4)c1 (stereo not drawn)
[A] 0.0927

[Q] Next compound up: Clc1ccc(C2=NCON=C2c2ccc(Cl)cc2)cc1
[A] 44.8

----------
Tested on: MCF7 breast
Test: NCI tumour cell line growth inhibition, 48 h; in the data active = GI50 below about 0.43 µM; inactive = the rest
In this exercise, the only acceptable responses are active, inactive

[Q] # lookup: test call for Fc1ccc(-c2nn3c(COc4ccc(Cl)cc4)nnc3s2)cc1Oc1ccccc1
[A] inactive

[Q] Next molecule up: C#Cc1cccc(NC(=O)C2CCCN(C(=O)CCl)C2)c1 (stereo not given)
[A] inactive

[Q] Next molecule up: COc1cc(/C=C\c2cc(OC)c(OC)c(OC)c2)cc(NS(=O)(=O)c2ccc(Cl)cc2)c1OC
[A] active

[Q] Next molecule up: CCSc1ncc(Br)c(Sc2nc(N)nc3nc[nH]c23)n1
[A] inactive

[Q] Next molecule up: COc1c(O)c2c3c(c1OC)-c1ccccc1CC3N(S(=O)(=O)c1ccc(C)cc1)CC2 (stereo not given)
[A] inactive

----------
System: MALME-3M melanoma
Experiment: NCI tumour cell line growth inhibition, 48 h
Would you mind telling me the reported GI50 of each entry?

[Q] For the compound CCCCC[C@@H](C/C=C/CCC(=O)NC/C(=C/Cl)[C@H]1C(=O)C(C)(C)C(=O)[C@@H](C)[C@@]1(C)O)OC , what GI50 is on record?
[A] 18.9 µM

[Q] Next compound up: COC(=O)c1ccc2[nH]c(O)c(C(=Nc3ccc(N(C)C(=O)CN4CCN(C)CC4)cc3)c3ccccc3)c2c1
[A] 1.43 µM

[Q] Next compound up: N#CCC1(n2cc(-c3ncnc4[nH]ccc34)cn2)CN(C2CCN(C(=O)c3ccnc(C(F)(F)F)c3F)CC2)C1
[A] > 100 µM

[Q] Next compound up: C=C(Cn1c2ccccc2c(=O)c2ccccc21)c1ccc(C(=O)Nc2ccccc2N)cc1
[A] 6.45 µM

[Q] Next compound up: CCSc1ncc(Br)c(Sc2nc(N)nc3nc[nH]c23)n1
[A] 1.25 µM

[Q] Next compound up: COc1cc(OC)cc(-c2ccc(-c3ccc(C(=N)N)cn3)s2)c1
[A] 1.87 µM

[Q] Next compound up: NC(N)=N/N=C(/c1ccccc1)c1ccccc1F
[A] 8 µM

[Q] Next compound up: CC1=C(CNO)C2=C(C)C3(CC3)[C@@](C)(O)C(=O)C2=C1
[A] 1.81 µM

[Q] Next compound up: NC(=O)c1ncn(C2OC(CO)C(O)C2O)c1N (stereo not given)
[A] > 100 µM

[Q] Next compound up: C#Cc1cccc(NC(=O)C2CCCN(C(=O)CCl)C2)c1 (stereo not given)
[A] 18.1 µM

----------
Would you mind telling me the reported TGI of each entry?
Test system: NCI-H226 lung
Test: NCI tumour cell line growth inhibition, 48 h

[Q] For the molecule O=C1C2CC[C@@H]3C(=O)C(Cl)(Cl)[C@@H]3CCC2C1(Cl)Cl (stereo not given in full) , what TGI is on record?
[A] > 100 µM

[Q] Next molecule up: Clc1cc2ncn(C3CCCCO3)c2cc1Cl (stereo not given)
[A] 80.9 µM

[Q] Next molecule up: C=C1CC/C=C(\C)CC[C@H](C(=C)C)[C@@H](O)/C=C(/CO)CCC1O (stereo not given in full)
[A] > 100 µM

[Q] Next molecule up: O=C(O)Cn1ccc(=O)c2cc([N+](=O)[O-])ccc21
[A] > 100 µM

[Q] Next molecule up: CC[C@]1(Cc2ccc(OC)c(OC)c2)C=[N+]([O-])O[C@H](OC2CCCC2(c2ccccc2)c2ccccc2)[C@@H]1OC(=O)C(C)(C)C (stereo not given in full)
[A] 12.5 µM

----------
Would you mind telling me the reported TGI of each entry?
System: MALME-3M melanoma
Assay: NCI tumour cell line growth inhibition, 48 h
// return numeric value only (unit: µM, not printed)

[Q] For the compound C[C@]12CCC3=NCCN3C1=CC[C@@H]1[C@@H]2CC[C@@]2(C)[C@H]1CC[C@]2(C)O , what TGI is on record?
[A] 53.5

[Q] Next compound up: Oc1ccccc1C=Nc1nc(OCc2ccccc2)nc2[nH]ncc12
[A] 38.2

----------
System: CAKI-1 renal
Experiment: NCI tumour cell line growth inhibition, 48 h
ASSAY_METRIC: TGI

[Q] Give recorded TGI with CAKI-1 renal for the following molecule: COc1c(O)c2c3c(c1OC)-c1ccccc1CC3N(S(=O)(=O)c1ccc(C)cc1)CC2 (stereo unspecified)
[A] > 50 µM

[Q] Next molecule up: O=C(O)Cn1ccc(=O)c2cc([N+](=O)[O-])ccc21
[A] > 100 µM

[Q] Next molecule up: COc1cc(/C=C2/Oc3c(OC)cccc3C2=O)ccc1O
[A] > 100 µM

[Q] Next molecule up: CN(/N=C\c1ccc2ccccc2c1)C1=NCCCN1
[A] 22.7 µM

[Q] Next molecule up: CN(C)c1ccc(C2CC(C)(O)Oc3cc4c(cc32)OCO4)cc1 (stereo unspecified)
[A] > 100 µM

[Q] Next molecule up: C=CCN=C(N/N=C/c1ccc([N+](=O)[O-])o1)NS(=O)(=O)c1cc(C(=O)Nc2ccccc2)c(Cl)cc1SCC(N)=O
[A] > 100 µM

[Q] Next molecule up: C[C@]12CCC3=NCCN3C1=CC[C@@H]1[C@@H]2CC[C@@]2(C)[C@H]1CC[C@]2(C)O
[A] > 100 µM

[Q] Next molecule up: O=c1c2cc(I)ccc2nc(-c2cccs2)n1O
[A] 98.4 µM

[Q] Next molecule up: O=CC1=CCC2c3[nH]c4ccccc4c3CCN2C1 (stereo unspecified)
[A] > 396 µM

[Q] Next molecule up: Nc1ccc(C(=O)/C=C/c2ccccc2O)cc1
[A] > 100 µM

[Q] Next molecule up: O=C1C2CC[C@@H]3C(=O)C(Cl)(Cl)[C@@H]3CCC2C1(Cl)Cl (stereo partly specified)
[A] > 100 µM

[Q] Next molecule up: COc1cc(/C=C\c2cc(OC)c(OC)c(OC)c2)cc(NS(=O)(=O)c2ccc(Cl)cc2)c1OC
[A] 50 µM

[Q] Next molecule up: CCCCCCCCCCCCC1N=C(N)N2CCCC2=C1C(=O)OC (stereo unspecified)
[A] 9.03 µM

[Q] Next molecule up: COc1ccc(/C=N/Nc2nnc3c(n2)c2ccccc2c2nn(-c4ccccc4Cl)nc23)cc1
[A] > 100 µM

[Q] Next molecule up: CC1=C2[C@@H](CC1)[C@]1(C)O[C@@](C3CC3)(C[C@H]1OC(=O)CO)[C@H]2OC(=O)/C=C/c1ccccc1
[A] 24 µM

[Q] Next molecule up: COc1ccc2c(c1)CC[C@@H]1C2CC[C@]2(C)C(=C=CP(=O)(O)O)CCC12 (stereo partly specified)
[A] > 100 µM

[Q] Next molecule up: O=C(C(=O)c1cc(Br)ccc1O)c1cc(Br)ccc1O
[A] 6.05 µM

[Q] Next molecule up: CCN(CC)CCOc1ccc2c(C)c(C(=O)OC)oc2c1C(=O)/C=C/c1ccc(OC)cc1
[A] 10.7 µM

[Q] Next molecule up: CCOC(=O)C1C(c2ccc(OC)cc2)c2c([nH]n(-c3ccccc3)c2=O)CC1(C)O (stereo unspecified)
[A] > 100 µM

[Q] Next molecule up: CSc1nc[nH]c1C(N)=S
[A] > 100 µM

[Q] Next molecule up: COc1ccc(/C(C)=C(\c2ccc(Cl)cc2)c2ccc(OCCN3CCCCCC3)cc2)cc1F
[A] 7.7 µM
